Data provenance is patent US20130065897A1.

Please respond with reported melting point for every item in the list.

Go through the items and report each one's melting point.
1. O=C1NC(=S)N/C1=C/c1ccc(-c2ccc3c(c2)CN(CCN2CCOCC2)C3=O)s1
2. O=C1NC(=S)N/C1=C/c1cc2ccc(-c3ccc4c(c3)COC4=O)cc2[nH]1
3. O=C1NC(=S)N/C1=C\c1csnc1-c1ccc2c(c1)COC2=O

["261 to 264 °C", "> 300 °C", "> 300 °C"]

I have 5 compounds here; please give me melting point for each one.
1. CN1CCN(CCCN2Cc3cc(-c4ccc(/C=C5/NC(=S)NC5=O)s4)ccc3C2=O)CC1
2. O=C1NC(=S)N/C1=C/c1cc2ccc(-c3ccc4c(c3)COC4=O)cc2s1
3. O=C1NC(=S)N/C1=C/c1cc(-c2ccc3c(c2)COC3=O)cs1
4. O=C1NC(=S)N/C1=C\c1cc(-c2ccc3c(c2)COC3=O)no1
5. [H]/N=C1/NC(=O)/C(=C\c2ccc(-c3ccc4c(c3)COC4=O)s2)N1C

1: 197 to 201 °C; 2: > 310 °C; 3: > 300 °C; 4: > 300 °C; 5: > 300 °C

State the recorded melting point for this entry: O=C1NC(=S)N/C1=C/c1ccc(-c2ccc(C(=O)NCCN3CCOCC3)cc2)s1 248 to 252 °C

###

Target Or Test System: recombinant perforin (UniProt P10820)
Sequence (P10820 whole entry): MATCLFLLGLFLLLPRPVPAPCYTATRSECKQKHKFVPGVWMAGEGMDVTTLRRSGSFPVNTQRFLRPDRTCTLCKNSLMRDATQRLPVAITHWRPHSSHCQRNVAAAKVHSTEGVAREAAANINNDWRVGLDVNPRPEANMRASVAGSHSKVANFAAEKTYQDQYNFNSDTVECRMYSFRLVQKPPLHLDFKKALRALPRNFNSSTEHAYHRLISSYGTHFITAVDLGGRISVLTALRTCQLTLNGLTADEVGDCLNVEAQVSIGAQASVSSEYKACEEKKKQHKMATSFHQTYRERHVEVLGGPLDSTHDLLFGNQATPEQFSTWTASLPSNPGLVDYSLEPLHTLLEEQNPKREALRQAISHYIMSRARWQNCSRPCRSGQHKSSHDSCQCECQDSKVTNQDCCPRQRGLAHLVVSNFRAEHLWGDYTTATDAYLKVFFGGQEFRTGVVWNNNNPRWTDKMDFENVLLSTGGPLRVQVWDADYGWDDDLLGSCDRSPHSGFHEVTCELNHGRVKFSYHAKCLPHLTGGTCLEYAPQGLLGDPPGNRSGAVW
Type: cell-based
Test Conditions: read-out: Jurkat IC50; recombinant perforin pre-incubated 30 min with compound; 51Cr-labelled Jurkat cells, 0.1% BSA, 37° C. 4 hours
Kindly supply the reported pIC50 values for the records listed here.
Answers are plain numbers, as −log10 of the molar value.

Value sought for every listed compound: pIC50.
1. COC(=O)c1ccc(-c2ccc(/C=C3/NC(=S)NC3=O)s2)cc1C [Cmpd 21]
2. O=C1NC(=S)N/C1=C/c1ccc(-c2ccc(C(=O)NCCCN3CCOCC3)cc2)s1 [Cmpd 43]
3. O=C1NC(=S)N/C1=C/c1ccc(-c2ccc3c(c2)CN(CCCN2CCCCC2)C3=O)s1 [Cmpd 75]

1: 5.52; 2: 5.09; 3: 4.93

###

Give IC50 for every item shown.
Target Or Test System: recombinant perforin (UniProt P10820)
Format: cell-based
Test Conditions: read-out: Jurkat IC50; recombinant perforin pre-incubated 30 min with compound; 51Cr-labelled Jurkat cells, 0.1% BSA, 37° C. 4 hours

Use these answered entries as a reference point.
| Molecule | Target Or Test System | IC50 |
| --- | --- | --- |
| O=C1NC(=S)N/C1=C/c1ccc(-c2cccc(F)c2)s1 [Cmpd 31] | recombinant perforin (UniProt P10820) | 10800 nM |
| O=C1NC(=S)N/C1=C/c1ccc(-c2ccc3c(c2)CNC3=O)s1 [Cmpd 46] | recombinant perforin (UniProt P10820) | 2550 nM |
| O=C1NC(=S)N/C1=C/c1ccc(-c2ccc(C(=O)NCC(O)CO)cc2)s1 (centres unmarked) [Cmpd 40] | recombinant perforin (UniProt P10820) | 2440 nM |
| O=C1NC(=S)N/C1=C/c1ccc(-c2ccc(Cl)cc2)s1 [Cmpd 24] | recombinant perforin (UniProt P10820) | 5220 nM |

Please state IC50 for every molecule in the list that follows.
1. O=C1NC(=S)N/C1=C\c1ccc(-c2ccc3c(c2)CCNC3=O)s1 [Cmpd 82]
2. NC(=O)c1cccc(-c2ccc(/C=C3/NC(=S)NC3=O)s2)c1 [Cmpd 17]
3. O=C1NC(=S)N/C1=C\c1ccc2ccc(-c3ccc4c(c3)COC4=O)cc2n1 [Cmpd 13]

1: 1140 nM; 2: 790 nM; 3: 1720 nM
